For each of the compounds below, state its pEC50.
- Target Or Test System: human CB2 receptor (Homo sapiens (Human), UniProt P34972)
- Sequence (P34972 whole entry): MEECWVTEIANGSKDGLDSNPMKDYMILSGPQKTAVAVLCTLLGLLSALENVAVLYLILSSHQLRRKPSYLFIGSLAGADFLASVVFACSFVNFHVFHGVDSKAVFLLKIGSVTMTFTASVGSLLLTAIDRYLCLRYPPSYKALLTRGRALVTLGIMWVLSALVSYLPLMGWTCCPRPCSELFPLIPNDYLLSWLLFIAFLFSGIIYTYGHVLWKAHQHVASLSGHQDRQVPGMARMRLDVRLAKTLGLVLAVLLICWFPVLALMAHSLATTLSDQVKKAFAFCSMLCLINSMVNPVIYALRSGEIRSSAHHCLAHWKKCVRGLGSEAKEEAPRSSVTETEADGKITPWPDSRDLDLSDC
- Assay Protocol: cAMP assay, CHO cells expressing human CB2 receptors
- Run Conditions: functional cAMP assay, read-out: CB2 hcAMP EC50
Please keep in mind that pEC50 is minus log10 of the molar concentration; only the number is needed.

-- ask pEC50 lookup needed for CCCCS(=O)(=O)c1nc(N2CCC(F)(F)C2)c2nnn(Cc3ccccc3Cl)c2n1 , thanks.
-- reply 8.06

-- ask Entry FC1(F)CCN(c2nc(C3CCC3)nc3c2nnn3Cc2ccccc2Cl)C1 : reported pEC50 = ?
-- reply 9.00

-- ask # get_value(readout='pEC50', item= CC(C)Oc1nc(N2CC[C@H](O)C2)c2nnn(Cc3ccccc3Cl)c2n1 )
-- reply 7.83

-- ask If you can, please state the reported pEC50 value of CC(O)CS(=O)(=O)c1nc(N2CCC(F)(F)C2)c2nnn(Cc3ccccc3Cl)c2n1 (stereo not drawn) .
-- reply 7.19

-- ask Can you share its pEC50? I mean this compound: CCCCOc1nc(N2CCC(F)(F)C2)c2nnn(Cc3ccccc3Cl)c2n1
-- reply 8.92

-- ask Suppose we examine the compound FC1(F)CCN(c2nc(OCC3CC3)nc3c2nnn3Cc2ccccc2Cl)C1 ; what pEC50 value has been reported?
-- reply 8.44

-- ask Given the entry CC(C)(O)COc1nc(N2CCC(F)(F)C2)c2nnn(Cc3ccccc3Cl)c2n1 , report its measured pEC50.
-- reply 7.80

-- ask // returns reported pEC50 for input CC(C)(C)CNc1nc(N2CCC(F)(F)C2)c2nnn(Cc3ccccc3Cl)c2n1
-- reply 8.51

-- ask Need pEC50, item FC(F)(F)COc1nc(N2CCC(F)(F)C2)c2nnn(Cc3ccccc3Cl)c2n1
-- reply 8.21

-- ask Give its pEC50 value. Item: Cc1nonc1Cn1nnc2c(N3CCC(F)(F)C3)nc(OCC(C)(C)C)nc21
-- reply 8.77

-- ask Which measured pEC50 value corresponds to CCS(=O)(=O)c1nc(N2CCC(F)(F)C2)c2nnn(Cc3ccccc3Cl)c2n1 ?
-- reply 7.06

-- ask Return reported pEC50; argument: COc1ccc(Cn2nnc3c(N4CC[C@@](C)(O)C4)nc(NC(C)(C)C)nc32)cc1
-- reply 7.25

-- ask Quick one: pEC50 of Cc1nonc1Cn1nnc2c(N3CCC(F)(F)C3)nc(NC(C)(C)C)nc21 ?
-- reply 9.00

-- ask What does the data say about its pEC50? Entry: CC(C)COc1nc(N2CCC(F)(F)C2)c2nnn(Cc3ccccc3Cl)c2n1
-- reply 8.92

-- ask Requested read-out: pEC50. Entry: OCCSc1nc(N2CCC(F)(F)C2)c2nnn(Cc3ccccc3Cl)c2n1
-- reply 8.13

-- ask // returns reported pEC50 for input Cc1noc(Cn2nnc3c(N4CC[C@](C)(O)C4)nc(N4CCOCC4)nc32)n1
-- reply 7.97

-- ask Which pEC50 is listed for CN(c1nc(N2CCC(F)(F)C2)c2nnn(Cc3ccccc3Cl)c2n1)C1CCC1 ?
-- reply 8.09

-- ask Return reported pEC50; argument: CC(C)(C)Sc1nc(N2CCC(F)(F)C2)c2nnn(Cc3ccccc3Cl)c2n1
-- reply 9.05

----------
For each entry below, report its EC50 value.
- Target Or Test System: human CB2 receptor (Homo sapiens (Human), UniProt P34972)
- Assay Protocol: cAMP assay, CHO cells expressing human CB2 receptors
- Run Conditions: functional cAMP assay, read-out: CB2 hcAMP EC50

-- ask Given the entry COc1ccc(Cn2nnc3c(N4CC[C@H](NC(C)=O)C4)nc(NC(C)(C)C)nc32)cc1 [Example 21] , report its measured EC50.
-- reply 141 nM

-- ask Entry C#CCOc1nc(N2CCC(F)(F)C2)c2nnn(Cc3ccccc3Cl)c2n1 [Example 56] : reported EC50 = ?
-- reply 11 nM

-- ask So what's the measured EC50 for this one? CC(C)Oc1nc(N2CC[C@H](O)C2)c2nnn(Cc3ccccc3S(C)(=O)=O)c2n1 [Example 63]
-- reply 190 nM

-- ask # EC50 lookup, item Cc1nonc1Cn1nnc2c(N3CCC(F)(F)C3)nc(C3CC3)nc21 [Example 5]
-- reply 1 nM

-- ask Give its EC50 value. Item: COc1ccc(Cn2nnc3c(N4CC[C@H](O)C4)nc(NC(C)(C)C)nc32)cc1 [Example 19]
-- reply 27.4 nM

-- ask Given FC1(F)CCN(c2nc(C3CC3)nc3c2nnn3Cc2ccccc2Cl)C1 [Example 4] , state its recorded EC50.
-- reply 1 nM

-- ask Please give the measured EC50 for this compound: CC(C)(C)COc1nc(N2CCC(F)(F)C2)c2nnn(Cc3ccccc3S(C)(=O)=O)c2n1 [Example 66]
-- reply 3.9 nM

-- ask Quick one: EC50 for Cc1noc(Cn2nnc3c(N4CC[C@@](C)(O)C4)nc(N4CCOCC4)nc32)n1 [Example 39] ?
-- reply 301 nM

-- ask Which EC50 is reported for this compound? CC(C)(C)Nc1nc(N2CCC(F)(F)C2)c2nnn(Cc3ccccc3C(F)(F)F)c2n1 [Example 22]
-- reply 2.1 nM

-- ask Look up EC50 for this compound: COc1ccc(Cn2nnc3c(N4CCC(F)(F)C4)nc(C4CC4)nc32)cc1 [Example 2]
-- reply 6.4 nM

-- ask # get_value(readout='EC50', item= CC(C)(C)Nc1nc(N2CCC(F)(F)C2)c2nnn(Cc3ncccc3Cl)c2n1 [Example 24] )
-- reply 3.4 nM

-- ask What measured EC50 goes with C[C@@H](Oc1nc(N2CCC(F)(F)C2)c2nnn(Cc3ccccc3Cl)c2n1)C(F)(F)F [Example 51] ?
-- reply 2.1 nM

-- ask I am curious: what EC50 value has been reported for FC1(F)CCN(c2nc(OC3CCC3)nc3c2nnn3Cc2ccccc2Cl)C1 [Example 48] ?
-- reply 1.7 nM

-- ask Look at this compound and give its reported EC50. CN(c1nc(N2CCC(F)(F)C2)c2nnn(Cc3ccccc3Cl)c2n1)C(C)(C)C [Example 15]
-- reply 2.2 nM

-- ask Using the record for CC(=O)N[C@H]1CCN(c2nc(NC(C)(C)C)nc3c2nnn3Cc2ncccc2Cl)C1 [Example 27] , report its EC50.
-- reply 267 nM

-- ask Would you mind telling me what EC50 value was observed for C[C@]1(O)CCN(c2nc(N3CCOCC3)nc3c2nnn3Cc2ncccc2Cl)C1 [Example 34] ?
-- reply 45.3 nM

-- ask State the recorded EC50 for this entry: FC1(F)CCN(c2nc(N3CCCC3)nc3c2nnn3Cc2ccccc2Cl)C1 [Example 10]
-- reply 2.9 nM

-- ask What value of EC50 has been recorded for this entry: Cc1noc(Cn2nnc3c(N4CCC(F)(F)C4)nc(O[C@@H](C)C(F)(F)F)nc32)n1 [Example 72]
-- reply 67.4 nM

-- ask Which measured EC50 value corresponds to CCOc1nc(N2CCC(F)(F)C2)c2nnn(Cc3ccccc3Cl)c2n1 [Example 44] ?
-- reply 4 nM

-- ask # input compound: CC1(COc2nc(N3CCC(F)(F)C3)c3nnn(Cc4ccccc4Cl)c3n2)COC1 [Example 50] ; wanted: its EC50
-- reply 2.8 nM

-- ask Please give the measured EC50 for this compound: Cc1nonc1Cn1nnc2c(N3CCC(F)(F)C3)nc(O[C@@H](C)C(F)(F)F)nc21 [Example 74]
-- reply 1.8 nM

-- ask Would you kindly share the measured EC50 for CCSc1nc(N2CCC(F)(F)C2)c2nnn(Cc3ccccc3Cl)c2n1 [Example 82] ?
-- reply 0.7 nM

-- ask Reported EC50, compound C[C@H](Oc1nc(N2CCC(F)(F)C2)c2nnn(Cc3ccccc3Cl)c2n1)C(F)(F)F [Example 42] : ____
-- reply 3.3 nM

-- ask EC50 lookup needed for COCC(C)Oc1nc(N2CCC(F)(F)C2)c2nnn(Cc3ccccc3Cl)c2n1 (stereo not shown) [Example 57] , thanks.
-- reply 8.8 nM

-- ask What does the record list as EC50 for COCCS(=O)(=O)c1nc(N2CCC(F)(F)C2)c2nnn(Cc3ccccc3Cl)c2n1 [Example 96] ?
-- reply 5.1 nM

-- ask State the recorded EC50 for this entry: O[C@H]1CCN(c2nc(OCC(F)(F)F)nc3c2nnn3Cc2ccccc2Cl)C1 [Example 60]
-- reply 0.8 nM

-- ask Fill in: EC50 of C[C@H](Oc1nc(N2CCC(F)(F)C2)c2nnn(Cc3ccccc3S(C)(=O)=O)c2n1)C(F)(F)F [Example 69] is ___
-- reply 3.2 nM

-- ask // query EC50 value for entry CC(Oc1nc(N2CCC(F)(F)C2)c2nnn(Cc3ccccc3Cl)c2n1)C(F)(F)F (stereo not shown) [Example 41]
-- reply 8.5 nM

-- ask # input compound: Cc1nnc(Cn2nnc3c(N4CCC(F)(F)C4)nc(O[C@@H](C)C(F)(F)F)nc32)o1 [Example 71] ; wanted: its EC50
-- reply 214 nM

-- ask Suppose we examine the compound CC(=O)N[C@H]1CCN(c2nc(OCC(C)(C)C)nc3c2nnn3Cc2ncccc2Cl)C1 [Example 78] ; what EC50 value has been reported?
-- reply 168 nM

-- ask Given the entry CC(C)(C)Nc1nc(N2CCC(F)(F)C2)c2nnn(Cc3ccccc3S(C)(=O)=O)c2n1 [Example 23] , report its measured EC50.
-- reply 1.1 nM

-- ask What does the data say about its EC50? Entry: COc1ccc(Cn2nnc3c(N4CCC(F)(F)C4)nc(NC(C)(C)C)nc32)cc1 [Example 20]
-- reply 20.3 nM

-- ask # input compound: Cn1nnnc1Cn1nnc2c(N3CCC(F)(F)C3)nc(OCC(C)(C)C)nc21 [Example 65] ; wanted: its EC50
-- reply 11.9 nM

-- ask Fill blank: measured EC50 of the compound C[C@H](Oc1nc(N2CCC(F)(F)C2)c2nnn(CCC(F)(F)F)c2n1)C(F)(F)F [Example 75] is ____.
-- reply 4.3 nM
